Property: melting point

Given smiles	melting point
O=C(O)Cc1c(Cl)nc(Cc2ccc(NC(=O)c3ccc(Oc4ccccc4)cc3)cc2)nc1N1CCCC1	160 °C
O=C(O)Cc1c(Cl)nc(Cc2ccc(NC(=O)c3ccc(Cl)c(Cl)c3)cc2)nc1N1CCCC1	129 °C
CN(C)c1nc(Cc2ccc(NC(=O)c3cccc(Cl)c3Cl)cc2)nc(Cl)c1CC(=O)O	101 °C
CN(CC(=O)NC1CCCC1)c1nc(Cc2ccc(NC(=O)c3ccc(Cl)cc3)cc2)nc(Cl)c1CC(=O)O	143 °C
COc1ccc(C(=O)Nc2ccc(Cc3nc(Cl)c(CC(=O)O)c(N(C)CC(=O)NC4CCCC4)n3)cc2)cc1	104 °C
CN(CCO)c1nc(Cc2ccc(NC(=O)c3ccc4ccccc4c3)cc2)nc(Cl)c1CC(=O)O	140 °C

Ask | Give melting point for the following compound: `CN(C)c1nc(Cc2ccc(NC(=O)[C@@H]3CCc4ccccc4O3)cc2)nc(Cl)c1CC(=O)O`
Reply | > 120 °C

Ask | Consider the compound `CN(C)c1nc(Cc2ccc(NC(=O)/C=C/c3ccccc3)cc2)nc(Cl)c1CC(=O)O` and give its recorded melting point.
Reply | > 160 °C

Ask | Determine from records and report melting point for `O=C(O)Cc1cnc(Cc2ccc(NC(=O)c3ccc(F)cc3)cc2)nc1N1CCCC1`
Reply | 143 to 145 °C

Ask | Check the records and state melting point for `CN(C)c1nc(Cc2ccc(NC(=O)c3ccc(C(F)(F)F)cc3)cc2)nc(Cl)c1CC(=O)O`
Reply | > 150 °C

Ask | Give a short answer stating reported melting point for `CC(C)CC(=O)Nc1ccc(Cc2ncc(CC(=O)[O-])c(N3CCCC3)n2)cc1.[Na+]` .
Reply | 148 to 150 °C

Ask | Read the entry `O=C(O)Cc1cnc(Cc2ccc(NC(=O)c3ccc4ccccc4n3)cc2)nc1N1CCCC1` and write its reported melting point.
Reply | 221 to 224 °C (dec.)

Ask | Quote melting point reported for `CN(C)c1nc(Cc2ccc(NC(=O)c3ccc(Cl)cc3)cc2)nc(Cl)c1CC(=O)O` please.
Reply | > 166 °C

Ask | Could you please provide reported melting point for `CCCC(=O)Nc1ccc(Cc2ncc(CC(=O)O)c(N3CCCC3)n2)cc1` ? Thanks!
Reply | 130 to 133 °C

Ask | State its melting point for this compound: `CN(C)c1nc(Cc2ccc(NC(=O)OCc3ccccc3)cc2)ncc1CC(=O)O`
Reply | 101 to 104 °C

Ask | Please give measured melting point of the following entry: `CN(CC(=O)NC1CCCC1)c1nc(Cc2ccc(NC(=O)Cc3ccc4c(c3)OCO4)cc2)nc(Cl)c1CC(=O)O`
Reply | > 120 °C
